Molecular target: Human tyrosinase (Homo sapiens)
Construct: endogenous in cells; host or cells: normal human melanocytes (abdominal surgery; several donors of fair, brown and black phototypes)
Sequence (P14679 19-529): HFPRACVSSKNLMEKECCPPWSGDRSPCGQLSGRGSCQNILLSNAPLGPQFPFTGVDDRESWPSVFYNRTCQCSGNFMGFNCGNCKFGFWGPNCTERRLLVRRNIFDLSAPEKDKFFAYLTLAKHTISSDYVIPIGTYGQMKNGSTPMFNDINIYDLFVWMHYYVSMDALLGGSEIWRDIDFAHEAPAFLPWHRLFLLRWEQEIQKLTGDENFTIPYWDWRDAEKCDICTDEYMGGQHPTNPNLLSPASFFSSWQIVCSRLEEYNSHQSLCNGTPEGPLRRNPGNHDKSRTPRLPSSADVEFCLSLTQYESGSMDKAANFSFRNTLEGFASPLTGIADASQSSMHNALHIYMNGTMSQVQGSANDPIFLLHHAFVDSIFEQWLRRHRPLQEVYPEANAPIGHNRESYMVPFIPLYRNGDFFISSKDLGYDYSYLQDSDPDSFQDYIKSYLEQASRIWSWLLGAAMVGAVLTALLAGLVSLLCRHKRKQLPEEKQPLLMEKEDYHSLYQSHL
Assay: Inhibition of human tyrosinase after 24 h application to normal human melanocytes in monolayer
Format: cell-based
Details: Donor 3, fair phototype; 10^−5 M; read-out: Inhibition of tyrosinase, Mean 10^−5 M, Donor 3
MEASUREMENT TYPE: inhibition at 10 µM (%)
Give bare numbers, in %.

COc1cc(/C=C/C(=O)NCCc2ccc(O)c(O)c2)ccc1O [Example 1, N-trans-feruloyldopamine] = 18.9
O=C(/C=C/c1ccc(O)c(O)c1)NCCc1ccc(O)c(O)c1 [Example 10, N-trans-caffeoyldopamine] = 3.32
O=C(/C=C/c1ccc(O)c(O)c1)NCCc1ccc(O)cc1 [Example 9, N-trans-caffeoyltyramine] = 22.2

Input: State its inhibition at 10 µM on Human tyrosinase (Homo sapiens): COc1cc(/C=C/C(=O)NCCc2ccc(O)cc2)ccc1O [Example 3, N-trans-feruloyltyramine]
Output: 42.5
